test system: thyroid hormone receptor (endogenous TRα and TRβ); experiment: GH3-TRE-Ag primary qHTS, luciferase reporter, agonist mode (TOX21_TR_LUC_GH3_Agonist, aeid 803); format: cell-based, rat; conditions: hit call from tcpl
Counter-ions that a name gives are not always drawn.
Property: GH3-TRE-Ag AC50 hitc

molecule="COc1ccc(OC)c(C(O)C(C)N)c1 (stereo not shown) [Methoxamine hydrochloride]" property="GH3-TRE-Ag AC50 hitc" experimental_value=1
molecule="N[C@@H](Cc1cc(I)c(Oc2ccc(O)c(I)c2)c(I)c1)C(=O)[O-].[Na+] [3,3ʹ,5-Triiodo-L-thyronine sodium salt, reference compound]" property="GH3-TRE-Ag AC50 hitc" experimental_value=1
molecule="CSCC[C@H](NC(=O)[C@H](Cc1ccc(OS(=O)(=O)O)cc1)NC(=O)[C@@H](N)CC(=O)O)C(=O)NCC(=O)N[C@@H](Cc1c[nH]c2ccccc12)C(=O)N[C@@H](CCSC)C(=O)N[C@@H](CC(=O)O)C(=O)N[C@@H](Cc1ccccc1)C(N)=O [Sincalide, reference compound]" property="GH3-TRE-Ag AC50 hitc" experimental_value=1
molecule="NCC(=O)CCC(=O)O [Aminolevulinic acid hydrochloride]" property="GH3-TRE-Ag AC50 hitc" experimental_value=1
molecule=CC1(C)COP(Oc2ccccc2)OC1 property="GH3-TRE-Ag AC50 hitc" experimental_value=1
molecule="N[C@@H](Cc1ccc(Oc2cc(I)c(O)c(I)c2)c(I)c1)C(=O)O [3,3',5'-Triiodo-L-thyronine]" property="GH3-TRE-Ag AC50 hitc" experimental_value=1
molecule="CC(C)(c1ccccc1)c1ccc(O)c(C(C)(C)c2ccccc2)c1 [2,4-Bis(1-methyl-1-phenylethyl)phenol]" property="GH3-TRE-Ag AC50 hitc" experimental_value=0

* * *

experiment: in vitro; conditions: rat, gh3-tre-luc cells, AC50 (uM) modified / 1000, Tox21_110001=Tox21_200642; viability, 1 nM T3 present, 24 h
Property: CC50 at 24 h (µM)

compound="CC(C)N(C(=O)SC/C(Cl)=C/Cl)C(C)C [Diallate]" experimental_value=92.9

* * *

tested on: GH3-TRE-Luc cell line; conditions: read-out: AC50 (uM) modified / 1000; Tox21_110001=Tox21_300287; viability, 1 nM T3 present, 24 h
Property: CC50 (µM)

item_smiles=CC1=C(/C=C/C(C)=C/C=C/C(C)=C/CO)C(C)(C)CCC1 assay_target="GH3-TRE-Luc cell line" property=CC50 experimental_value=85.7

* * *

system: GH3-TRE-Luc cell line; settings: read-out: AC50 (uM) modified / 1000; Tox21_110001=Tox21_110169; viability, 1 nM T3 present, 24 h
Property: CC50

compound="Oc1ccc(O)cc1 [Hydroquinone]" assay_target="GH3-TRE-Luc cell line" experimental_value="16 µM"

* * *

A collection of compounds and their measured CC50 at 24 h
assay: in vitro; conditions: rat, gh3-tre-luc cells, AC50 (uM) modified / 1000
Structures can show the parent of a compound that is named as a salt.
Property: CC50 at 24 h

compound=CC(=O)CCC(C)=O property="CC50 at 24 h" experimental_value="> 90 µM"
compound=CC1(C)[C@H]2CC[C@]1(C)C(=O)C2 property="CC50 at 24 h" experimental_value="> 90 µM"
compound="O=C1CCC(=O)N1CO [N-Hydroxymethylsuccinimide]" property="CC50 at 24 h" experimental_value="> 50 µM"
compound=O=C1c2ccccc2C(=O)N1CO property="CC50 at 24 h" experimental_value="> 90 µM"
compound="N#Cc1nn(-c2c(Cl)cc(C(F)(F)F)cc2Cl)c(N)c1[S+]([O-])C(F)(F)F (stereo not drawn)" property="CC50 at 24 h" experimental_value="49.6 µM"
compound="NNc1nc(-c2ccccc2)cs1 [2-Hydrazino-4-phenylthiazole]" property="CC50 at 24 h" experimental_value="47 µM"
compound=c1cc(-c2ccncc2)ccn1 property="CC50 at 24 h" experimental_value="> 90 µM"
compound=COc1ccc(C)cc1 property="CC50 at 24 h" experimental_value="> 90 µM"
compound=O=C(c1ccccc1)c1cc(Cl)ccc1O property="CC50 at 24 h" experimental_value="> 90 µM"
compound=CC(=O)[C@H]1CC[C@H]2[C@@H]3CC=C4C[C@@H](O)CC[C@]4(C)[C@H]3CC[C@]12C property="CC50 at 24 h" experimental_value="> 90 µM"
compound="CC(=O)OC/C=C/c1ccccc1 [3-Phenylprop-2-en-1-yl acetate]" property="CC50 at 24 h" experimental_value="> 90 µM"
compound=CCO[Si](CCCS)(OCC)OCC property="CC50 at 24 h" experimental_value="> 90 µM"
compound=CN(C)CCc1ccc(O)cc1 property="CC50 at 24 h" experimental_value="> 50 µM"
compound=CN1C(=O)CN=C(c2ccccc2)c2cc([N+](=O)[O-])ccc21 property="CC50 at 24 h" experimental_value="> 50 µM"
compound=NCCNCCNCCN property="CC50 at 24 h" experimental_value="> 90 µM"
compound="CC(C)NCC(O)c1ccc(O)c(O)c1 (stereo not drawn) [Isoproterenol hydrochloride]" property="CC50 at 24 h" experimental_value="> 90 µM"
compound="CCC1Nc2cc(Cl)c(S(N)(=O)=O)cc2S(=O)(=O)N1 (stereo not drawn) [Ethiazide]" property="CC50 at 24 h" experimental_value="> 50 µM"
compound="C=C1C(=O)O[C@H]2[C@H]1CC/C(C)=C/CC[C@@]1(C)O[C@@H]21 [Parthenolide]" property="CC50 at 24 h" experimental_value="13.8 µM"
compound=O=C1NC(=O)[C@@]2(CCOc3ccc(F)cc32)N1 property="CC50 at 24 h" experimental_value="> 50 µM"
compound=CO/N=C(\C(=O)N[C@@H]1C(=O)N2C(C(=O)O)=C(Cn3nnc(C)n3)CS[C@H]12)c1csc(N)n1 property="CC50 at 24 h" experimental_value="> 50 µM"
compound="CC[N+](CC)(CC)CCOc1cccc(OCC[N+](CC)(CC)CC)c1OCC[N+](CC)(CC)CC [Gallamine triethiodide]" property="CC50 at 24 h" experimental_value="> 50 µM"
compound=O=C(O)c1cc(O)c(O)c(O)c1 property="CC50 at 24 h" experimental_value="90.1 µM"
compound="CC(C)CCCC(C)CCO (stereo not drawn)" property="CC50 at 24 h" experimental_value="> 90 µM"
compound="C=CC(=O)NC(C)C [N-Isopropylacrylamide]" property="CC50 at 24 h" experimental_value="> 90 µM"
compound=COC(=O)NCCC[Si](OC)(OC)OC property="CC50 at 24 h" experimental_value="> 90 µM"
compound="CCC(NC(C)C)C(O)c1ccc(O)c(O)c1 (stereo not drawn) [Isoetharine mesylate]" property="CC50 at 24 h" experimental_value="> 50 µM"
compound="C[N+](C)(C)CCOP(=O)(O)OP(=O)([O-])OC[C@H]1O[C@@H](n2ccc(N)nc2=O)[C@H](O)[C@@H]1O [Citicoline sodium]" property="CC50 at 24 h" experimental_value="> 50 µM"
compound="COCC(C)N (stereo not drawn)" property="CC50 at 24 h" experimental_value="> 90 µM"
compound=C/C=C1\C(=O)C[C@H]2[C@@H]3CCC4=CC(=O)CC[C@]4(C)[C@H]3CC[C@]12C property="CC50 at 24 h" experimental_value="> 50 µM"
compound=CC[C@@H]1C(=O)OC[C@@H]1Cc1cncn1C property="CC50 at 24 h" experimental_value="> 50 µM"
compound=Cc1c(Cl)cccc1Nc1ccccc1C(=O)O property="CC50 at 24 h" experimental_value="> 50 µM"
compound="NNc1nc(-c2ccc([N+](=O)[O-])cc2)cs1 [2-Hydrazino-4-(4-nitrophenyl)thiazole]" property="CC50 at 24 h" experimental_value="58.8 µM"
compound=COc1cccc(O)c1O property="CC50 at 24 h" experimental_value="70.4 µM"
compound="COCC1=C(C(=O)OC(C)OC(=O)OC(C)C)N2C(=O)[C@@H](NC(=O)/C(=N\\OC)c3csc(N)n3)[C@H]2SC1 (stereo partly drawn)" property="CC50 at 24 h" experimental_value="> 50 µM"
compound=C/C=C/C=C/C=O property="CC50 at 24 h" experimental_value="> 90 µM"
compound="CCC(C(N)=O)N1CCCC1=O (stereo not drawn)" property="CC50 at 24 h" experimental_value="> 50 µM"
compound="C[C@]12C=CC(=O)C=C1CC[C@@H]1[C@@H]2[C@@H](O)C[C@@]2(C)[C@H]1CC[C@]2(O)C(=O)COC(=O)CCC(=O)O [Prednisolone 21-hemisuccinate]" property="CC50 at 24 h" experimental_value="> 50 µM"
compound=O=C(O)c1c(Cl)ccc2cc(Cl)cnc12 property="CC50 at 24 h" experimental_value="> 90 µM"
compound="O=S(=O)(O)CCS [Sodium 2-mercaptoethanesulfonate]" property="CC50 at 24 h" experimental_value="> 90 µM"

The measured values listed here are drawn from paper PMC6792352.
